Each recorded value in this set is attributed to the Human Domainome abundance scans (Beltran et al. 2025).

B1: Histone H1t, residues 44 to 112; numbered along this chain, P22492 (parent)
chain: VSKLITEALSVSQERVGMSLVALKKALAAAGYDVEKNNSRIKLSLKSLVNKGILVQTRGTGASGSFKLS

- Variants of: B1
- testSummary: abundance fitness (aPCA) (normalised: wild type 0, dead -1); higher = more abundant; growth selection in yeast, the domain comes from the species named
- conditionsUsed: Homo sapiens
Each entry below carries its reported abundance fitness.

{"sequenceEntry": "VSKLITEALSVSQERVGMSLVALKKALAAAGYDVEPNNSRIKLSLKSLVNKGILVQTRGTGASGSFKLS [K36P]", "abundance fitness": -0.62}
{"sequenceEntry": "VSKLITEALSVSQERVGMSLVILKKALAAAGYDVEKNNSRIKLSLKSLVNKGILVQTRGTGASGSFKLS [A22I]", "abundance fitness": -0.699}
{"sequenceEntry": "VSKLITEALSVSQERVGMSLVALKKALAAAGYDVEKNNSRIKLSLKSLVNKGIAVQTRGTGASGSFKLS [L54A]", "abundance fitness": -0.3}
{"sequenceEntry": "VSKLITEALSVSQERVGMSLVALKKALAAAGYDVEKNNSRIKLSLKSLVNKGILVQTRGTGAQGSFKLS [S63Q]", "abundance fitness": 0.057}
{"sequenceEntry": "VSKLITEALSVSQERVGMSLVALKKALAAAGYDVEKNNSRIKLSLKSLVNKGWLVQTRGTGASGSFKLS [I53W]", "abundance fitness": -0.062}
{"sequenceEntry": "VSKLITEALSVSQERVGMSLVALKKALAAAGYDVEKNNSRIKLQLKSLVNKGILVQTRGTGASGSFKLS [S44Q]", "abundance fitness": -0.072}
{"sequenceEntry": "VSKLITEALSVSQERVGMSLVALKKALAAPGYDVEKNNSRIKLSLKSLVNKGILVQTRGTGASGSFKLS [A30P]", "abundance fitness": -0.364}
{"sequenceEntry": "VSKLITEALSVSQERVGMSLVALKKALAAAGYDVEKNNSRIKLSLKSLVNKGMLVQTRGTGASGSFKLS [I53M]", "abundance fitness": -0.054}
{"sequenceEntry": "VSKLITEALSVSQERVGMSLVALKKALAAAGYDVEKNNSRIVLSLKSLVNKGILVQTRGTGASGSFKLS [K42V]", "abundance fitness": -0.024}
{"sequenceEntry": "VSKLITEALSVSQERVGMSLVALKKALAAAGYDVEKNNYRIKLSLKSLVNKGILVQTRGTGASGSFKLS [S39Y]", "abundance fitness": -0.557}
{"sequenceEntry": "VSKLITEALSVSQERVGMSLVALKKALAAAGYDVEKNNSRIKLSLVSLVNKGILVQTRGTGASGSFKLS [K46V]", "abundance fitness": -0.197}
{"sequenceEntry": "VSKLITEALSVSQERVGMSLVALKKALAAAGYDVEKNNSRIKLSLKSLVNKYILVQTRGTGASGSFKLS [G52Y]", "abundance fitness": -0.425}
{"sequenceEntry": "VSKLITEALSVSQERVGMSLVALKKALAAAGYDVEKNNSRIKLSLKSLVNKGILVQTRGTGASGSFKMS [L68M]", "abundance fitness": -0.082}
{"sequenceEntry": "VSKLITEALSVSQERVGMSLVALKKALAAAGYDVEKNNSRIKLSLKSLVNKGILVQTRGTGASGSPKLS [F66P]", "abundance fitness": -0.112}
{"sequenceEntry": "VSKLITEALSVSQERVGMSLVALKKALAAAGYDVEKNNSRIKLSLKSLVNKGILVQTRGTGASGSFKSS [L68S]", "abundance fitness": -0.115}
{"sequenceEntry": "VSKLITEALSVSQERVGMSLVALKKALAAAGYDVEKNNSRIKLSLGSLVNKGILVQTRGTGASGSFKLS [K46G]", "abundance fitness": -0.875}
